Reference source for all entries: PubChem BioAssay (NCI)

Recorded TGI, one value per entry.
- System: HOP-62 NSCLC
- PROCEDURE DETAILS: NCI tumour cell line growth inhibition, 48 h
The reply should contain only the number, in µM.

C[C@H](C(=O)N1C(=O)O[C@@H](c2ccccc2)[C@H]1C)[C@H](c1ccccc1)N(Cc1ccccc1)OC(=O)c1ccccc1 :: 52.1
COc1cccc2c1[C@H](OC)[C@]13O[C@@]1(C2=O)[C@H](O)[C@H](C)[C@@](O)(C(=O)[C@@H]1O[C@H]1C)[C@@H]3O :: 1.59
CCCCCCCCOC(=O)c1cc(O)c(O)c(O)c1 :: 20

Now consider the entry below.
Task item: Query (molecule): OC(CCN1CCN(CCOC(c2ccc(F)cc2)c2ccc(F)cc2)CC1)c1ccccc1 (stereo unspecified) ; field requested: TGI
Reply: 36.5

---

- System: CCRF-CEM leukemia
- PROCEDURE DETAILS: NCI tumour cell line growth inhibition, 48 h
MEASURED ENDPOINT: TGI (µM)
The reply should contain only the number, in µM.

Worked set:
Cc1cc2cc(Oc3ccnc(Nc4cccc(CS(=O)(=O)NCCN(C)C)c4)n3)ccc2[nH]1 :: 11.3
CCCN(CCC)C(=O)Cc1c2n(c3ccccc13)CCCc1ccccc1-2 :: 37.2

Now consider the entry below.
Task item: Query (compound): Cc1c2ccccc2nc2[nH]c3ccncc3c12 ; field requested: TGI
Reply: 10.9

---

- System: M19-MEL melanoma
- PROCEDURE DETAILS: NCI tumour cell line growth inhibition, 48 h
Recorded TGI, one value per entry.
The reply should contain only the number, in µM.

Worked set:
CCCC/C=C1\CCC(CN2CCOCC2)C1=O (stereo unspecified) :: 15.2
CSc1ccc2c(cc1=O)C(NC(=O)c1cc(O)c(OC(=O)O)c(O)c1)CCc1cc(O)c(O)c(O)c1-2 (stereo unspecified) :: 27.4

Now consider the entry below.
Task item: Query (compound): O=C(Cc1ccccc1)NN1C(=O)C(Cl)C1c1cc(Br)cc(Br)c1O (stereo unspecified) ; field requested: TGI
Reply: 63.2

---

- System: HL-60(TB) leukemia
- PROCEDURE DETAILS: NCI tumour cell line growth inhibition, 48 h
Decision: TGI >= 10 µM yields 1 (yes), all other cases yield 0 (no).

N#C/C(=C\N1CCNC1=S)C(=O)c1ccc2ccccc2c1 :: 1 (yes)
CC(=O)[CH-]C(=O)c1ccccc1.CC(=O)[CH-]C(=O)c1ccccc1.[O-]c1ccc(O)cc1.[O-]c1ccc(O)cc1.[Ti+4] :: 1 (yes)
CNNC1=NS(=O)(=O)c2cc(C(=O)OC)c(Cl)cc2S1 :: 1 (yes)
CCCN(CCC)C(=O)Cc1c2n(c3ccccc13)CCCc1ccccc1-2 :: 1 (yes)
Cc1cc(C)c(S(=O)(=O)Oc2ccccc2[N+](=O)[O-])c(C)c1 :: 0 (no)
CSc1ccc2c(cc1=O)C(NC(=O)c1cc(O)c(OC(=O)O)c(O)c1)CCc1cc(O)c(O)c(O)c1-2 (centres undefined) :: 1 (yes)

Task item: Say whether CCN(CC)CC1CCCCN1CC(=O)N1c2ccc(Br)cc2C(=O)Nc2cccnc21 (centres undefined) shows TGI of 10 µM or more.
Reply: 1 (yes)

Task item: Item: C#Cc1cccc(N2C(=O)CC(=P(c3ccccc3)(c3ccccc3)c3ccccc3)C2=O)c1
Reply: 1 (yes)
